Values were extracted from the METLIN SMRT retention time set (Domingo-Almenara et al. 2019).

- Assay Overview: gradient 5% acetonitrile 3 min, to 50% in 2 min, to 85% in 15 min, held 3 min, 100 µL/min
- Condition Description: column: Zorbax Extend-C18 2.1 x 50 mm; eluents: water / acetonitrile, 0.1% formic acid
Quantity Kind: RP-LC retention time (s)
Write it as a number; the unit s goes unstated.

These recorded examples may help you get a feel for the data.
**Query** Please give measured RP-LC retention time of the following entry: COc1cc(C(=O)N2CCC(c3nc4cccnc4n3C)C2)ccc1C (centres undefined)
**Result** 683

**Query** Dear colleague, please send me the reported RP-LC retention time for COc1cc(NC(=O)c2cn3c(n2)CCCC3)cc(OC)c1 when you can.
**Result** 614

**Query** Quickly give me recorded RP-LC retention time for CCn1cc(CCNC(=O)c2ccccc2Cl)c2cccnc21
**Result** 691

**Query** Specify RP-LC retention time for COc1ccc(C2CC(=O)c3c([nH]c(C(=O)OC4CCCCC4)c3C)C2)cc1OC (centres undefined) and stop.
**Result** 1070

**Query** Identify RP-LC retention time associated with the compound COc1ccc(-n2ccnc(NC(=O)Nc3ccccc3)c2=O)cc1OC
**Result** 829

**Query** State its RP-LC retention time for this compound: O=C(c1ccc2c(c1)OCO2)N1CCC2(CC1)N=C(c1ccc(Cl)cc1)NO2
**Result** 956

**Query** Retrieve RP-LC retention time measured for COc1ccc(-c2nnc(CC(=O)NC3CCCCCC3)o2)cc1 and print it.
**Result** 780

**Query** Quick one: give measured RP-LC retention time for Cc1cc2c(c(=O)n1Cc1ccccc1)C(C(C)C)C(C#N)=C(N)O2 (centres undefined)
**Result** 769

**Query** Provide measured RP-LC retention time value, entry: O=C(NCc1ccc(N2CCN(c3ccccn3)CC2)cc1)c1ccoc1
**Result** 624

**Query** Give a short answer stating reported RP-LC retention time for Cc1ccc(-c2noc(-c3cccc(S(=O)(=O)Nc4ccccn4)c3)n2)cc1 .
**Result** 935

Continuing:
**Query** Provide measured RP-LC retention time value, entry: COc1cccc(Cn2nc3c(S(=O)(=O)N4CCc5ccccc5C4)cccn3c2=O)c1
**Result** 943

**Query** Complete the entry with RP-LC retention time for CCCN(C(=O)Nc1ccc(CC)cc1)c1nc(-c2ccc(Br)cc2)cs1
**Result** 660

**Query** Hello, please tell me recorded RP-LC retention time for this one: O=C(CN1CCC(c2nc(-c3ccccc3)no2)CC1)NC1CCCCC1
**Result** 700

**Query** Let me know recorded RP-LC retention time for CCn1c(SCC(=O)N2CCCCC2)nnc1-c1ccc2c(c1)OCCCO2 , thanks.
**Result** 734

**Query** Please indicate RP-LC retention time recorded for O=C(Nc1cnc(-c2ccc(Cl)cc2)nc1)c1cccs1
**Result** 1040

**Query** Give a short answer stating reported RP-LC retention time for Cc1cccnc1NC(=O)C1CCN(S(=O)(=O)c2cc(C(=O)N3CCCCCC3)cs2)CC1 .
**Result** 675

**Query** Tell us which RP-LC retention time value is on record for CCc1nc2cc(-c3noc(C4CC(=O)N(c5ccc(C)cc5)C4)n3)ccc2o1 (centres undefined)
**Result** 987

**Query** Retrieve RP-LC retention time measured for O=C(Cc1csc(NC(=O)c2ccsc2)n1)NCCOc1ccc(F)cc1 and print it.
**Result** 747

**Query** Please give the documented RP-LC retention time of CCn1nccc1C1CCCN1C(=O)c1c(Cl)cnn1C (centres undefined)
**Result** 677

**Query** Note RP-LC retention time for the compound shown: Cc1cc(Cl)ccc1NC(=O)N1CCCC1c1nnc2n1CCN(C)CC2 (centres undefined)
**Result** 584

**Query** Please look at this compound and report its RP-LC retention time: O=C(C1c2ccccc2CCN1C(=O)C1CC1)N1CCN(c2ccccc2F)CC1 (centres undefined)
**Result** 947

**Query** Please list RP-LC retention time recorded for the compound Cc1cc(-c2c(C)sc(C)c2S(=O)(=O)N2CCN(c3ccccc3F)CC2)n[nH]1
**Result** 971

**Query** Fill in RP-LC retention time for record O=C(Nc1ccc(OC(F)(F)F)cc1)C1CCN(C(=O)C2Sc3ccccc3NC2=O)CC1 (centres undefined)
**Result** 893

**Query** Entry CC(C)NC[C@H](O)COc1cccc2[nH]ccc12 needs its RP-LC retention time filled in; supply it.
**Result** 603

**Query** Give the reported RP-LC retention time for this compound. Cc1cnc(C2CC2)n1C1CCN(C(=O)c2cccn2C)C1 (centres undefined)
**Result** 583

**Query** Return reported RP-LC retention time. Input compound: CCc1cccc(NC(=O)C2CCN(S(=O)(=O)c3cn(C)cn3)CC2)c1
**Result** 732

**Query** Determine from records and report RP-LC retention time for Cc1nnc(NC(=O)c2nc(-c3cnccn3)no2)s1
**Result** 598

**Query** Note RP-LC retention time for the compound shown: COc1cc(OC)cc(C(=O)N2CCN(c3cc(-c4cccs4)[nH]n3)CC2)c1
**Result** 794

---

- Assay Overview: gradient 5% acetonitrile 3 min, to 50% in 2 min, to 85% in 15 min, held 3 min, 100 µL/min
- Condition Description: column: Zorbax Extend-C18 2.1 x 50 mm; eluents: water / acetonitrile, 0.1% formic acid
Quantity Kind: RP-LC retention time (s)
Just the number please, in s, no unit attached.

Completed entries (count: 5):
**Query** Give recorded RP-LC retention time. O=C(Nc1ccc2c(c1)OCCO2)N1CCCC1c1nc(CCOCC2CCCC2)no1 (configuration not stated)
**Result** 896

**Query** Supply measured RP-LC retention time of CCn1cc(S(=O)(=O)N2C[C@H]3CN(S(=O)(=O)c4cccc(C)c4)C[C@@H](C2)O3)cn1 in your reply.
**Result** 833

**Query** // fetch RP-LC retention time given entry Cn1cnc(S(=O)(=O)NCCN2C(=O)C3(CCCCC3)C2c2ccccc2)c1 (configuration not stated)
**Result** 722

**Query** Look up RP-LC retention time of O=C(Cn1cccc(-c2nc(-c3ccc(F)cc3)no2)c1=O)NCC1CCCO1 (configuration not stated) and report it.
**Result** 706

**Query** Please report the measured RP-LC retention time for CCOC(=O)c1cnc(Nc2nc(C)c3cc(OC)ccc3n2)nc1C
**Result** 681

***
**Query** // fetch RP-LC retention time given entry CCOC(=O)C1CCN(C(=O)c2nc(N(CC)CC)c3c(C)cc(C)nc3n2)CC1
**Result** 657

**Query** Specify RP-LC retention time for O=C(NCc1cccc(C(F)(F)F)c1)C1CCN(c2cnc3nccnc3c2)CC1 and stop.
**Result** 754

---

Overview of reported RP-LC retention time across a group of compounds:
- Assay Overview: gradient 5% acetonitrile 3 min, to 50% in 2 min, to 85% in 15 min, held 3 min, 100 µL/min
- Condition Description: column: Zorbax Extend-C18 2.1 x 50 mm; eluents: water / acetonitrile, 0.1% formic acid
# value in s; strip the unit string

Sample answers from the record:
**Query** Retrieve RP-LC retention time measured for Cc1cc(C)c(C)c(S(=O)(=O)N2CC(=O)N(CC3CC3)CC23CCCC3)c1C and print it.
**Result** 1170

**Query** Kindly indicate its recorded RP-LC retention time. Item: CC1(C(=O)NCc2ccc(F)cc2)Cn2cnc(C(=O)NCc3ccc(F)cc3)c2C(=O)N1C1CC1 (configuration not stated)
**Result** 777

**Query** Return RP-LC retention time for the following compound: CCN1CCn2cc(S(=O)(=O)Nc3ccc(C)cc3)cc2C1=O
**Result** 723

**Query** State, in one line, measured RP-LC retention time of CCC(C)N(CC(=O)N1CCc2sccc2C1COc1ccc(Cl)cc1)C(=O)COC (configuration not stated)
**Result** 955

**Query** Respond only with RP-LC retention time recorded for O=C(c1ccc(OCC2CCCN2C(=O)c2ccccc2)cc1)N1CCCC1 (configuration not stated)
**Result** 789

**Query** Specify RP-LC retention time for CN(C)C(=O)C1c2ccccc2CCN1CC(=O)N1CCN(c2ccc(Cl)cc2)CC1 (configuration not stated) and stop.
**Result** 742

Further cases:
**Query** Identify the reported RP-LC retention time for the following entry. CCc1ccc(N2C(=O)CN(CCc3ccccc3F)[C@H]3CS(=O)(=O)C[C@H]32)cc1
**Result** 904

---

- Assay Overview: gradient 5% acetonitrile 3 min, to 50% in 2 min, to 85% in 15 min, held 3 min, 100 µL/min
- Condition Description: column: Zorbax Extend-C18 2.1 x 50 mm; eluents: water / acetonitrile, 0.1% formic acid
Records here are stratified by RP-LC retention time; strata: bottom bin (below 800 s), middle bin (800 s to below 900 s), top bin (900 s or more)

**Query** Each compound maps to one class by RP-LC retention time. Which class for COc1cc(CCc2cc(NC(=O)c3ccc(N4C[C@@H](C)N[C@@H](C)C4)cc3)n[nH]2)cc(OC)c1 ?
**Result** bottom bin

Next:
**Query** Note: place this compound into its band. Item: FC(F)(F)c1cccc(CN2CCCN(c3ncccc3-c3nc(C4CC4)no3)CC2)c1
**Result** bottom bin

**Query** Note: place this compound into its band. Item: O=S(=O)(NC1CCCCCCC1)c1ccc2c(c1)-c1oncc1CO2
**Result** top bin

**Query** Class (by measured RP-LC retention time) for COc1cccc(NC(=O)c2c(C)oc3nc(C)nc(N4CCCC4)c23)c1
**Result** bottom bin

**Query** GET /class?item= O=C(Nc1ccc(Cl)cc1)C1CCN(S(=O)(=O)c2ccc3[nH]c(=O)sc3c2)CC1
**Result** middle bin

**Query** Where would COc1ccc(SCCCC(=O)NCc2ccccc2)cc1 land among the classes by reported RP-LC retention time?
**Result** middle bin

**Query** Lab log: Cc1ncc2c(n1)C[C@@H]1CC[C@H]2N1C(=O)NCCc1ccccc1 — assign RP-LC retention time category
**Result** bottom bin

**Query** Given C=CCNC(=O)C1CCCN(C(=O)Nc2ccc(NC(=O)Nc3ccc(C)c(C)c3)cc2)C1 (stereo unspecified) , name the class its RP-LC retention time places it in.
**Result** bottom bin

**Query** Which RP-LC retention time category applies to COC(=O)c1ccc(NC(=O)N2CCCC2c2cc(C)on2)cc1 (stereo unspecified) here?
**Result** bottom bin

**Query** Consider O=C(NC1CCCC1)c1nc(C(=O)N2CCN(c3ccccc3F)CC2)cs1 . To which RP-LC retention time class does it belong?
**Result** top bin
